measurement.context: in n-hexane, 288.15 K
readout.name: solubility (mole fraction)
// return a plain number; no unit text

// solubility (mole fraction) lookup, compound = c1cnc2[nH]ccc2c1 , result: 0.0215

====

measurement.context: in THF, 288.15 K
readout.name: solubility (mole fraction)
// return a plain number; no unit text

// solubility (mole fraction) lookup, molecule = c1cnc2[nH]ccc2c1 , result: 0.377

====

measurement.context: in acetonitrile, 283.15 K
readout.name: solubility (mole fraction)
// return a plain number; no unit text

// solubility (mole fraction) lookup, compound = c1cnc2[nH]ccc2c1 , result: 0.116

====

measurement.context: in n-propanol, 318.15 K
readout.name: solubility (mole fraction)
// return a plain number; no unit text

// solubility (mole fraction) lookup, compound = c1cnc2[nH]ccc2c1 , result: 0.333

====

measurement.context: in isopropanol, 293.15 K
readout.name: solubility (mole fraction)
// return a plain number; no unit text

// solubility (mole fraction) lookup, compound = c1cnc2[nH]ccc2c1 , result: 0.247

====

measurement.context: in ethyl acetate, 293.15 K
readout.name: solubility (mole fraction)
// return a plain number; no unit text

// solubility (mole fraction) lookup, molecule = c1cnc2[nH]ccc2c1 , result: 0.237

====

measurement.context: in ethyl acetate, 278.15 K
readout.name: solubility (mole fraction)
// return a plain number; no unit text

// solubility (mole fraction) lookup, compound = c1cnc2[nH]ccc2c1 , result: 0.21

====

measurement.context: in ethanol, 313.15 K
readout.name: solubility (mole fraction)

// solubility (mole fraction) lookup, compound = c1cnc2[nH]ccc2c1 , result: 0.299

====

measurement.context: in ethyl acetate, 323.15 K
readout.name: solubility (mole fraction)

// solubility (mole fraction) lookup, compound = c1cnc2[nH]ccc2c1 , result: 0.346

====

measurement.context: in n-hexane, 298.15 K
readout.name: solubility (mole fraction)
// return a plain number; no unit text

// solubility (mole fraction) lookup, compound = c1cnc2[nH]ccc2c1 , result: 0.0256

====

measurement.context: in THF, 278.15 K
readout.name: solubility (mole fraction)
// return a plain number; no unit text

// solubility (mole fraction) lookup, compound = c1cnc2[nH]ccc2c1 , result: 0.343

====

measurement.context: in acetonitrile, 318.15 K
readout.name: solubility (mole fraction)
// return a plain number; no unit text

// solubility (mole fraction) lookup, compound = c1cnc2[nH]ccc2c1 , result: 0.214

====

measurement.context: in methanol, 308.15 K
readout.name: solubility (mole fraction)
// return a plain number; no unit text

// solubility (mole fraction) lookup, molecule = c1cnc2[nH]ccc2c1 , result: 0.31

====

measurement.context: in n-hexane, 293.15 K
readout.name: solubility (mole fraction)

// solubility (mole fraction) lookup, molecule = c1cnc2[nH]ccc2c1 , result: 0.0234

====

measurement.context: in acetone, 303.15 K
readout.name: solubility (mole fraction)
// return a plain number; no unit text

// solubility (mole fraction) lookup, compound = c1cnc2[nH]ccc2c1 , result: 0.361

====

measurement.context: in ethyl acetate, 308.15 K
readout.name: solubility (mole fraction)

// solubility (mole fraction) lookup, molecule = c1cnc2[nH]ccc2c1 , result: 0.283

====

measurement.context: in methanol, 288.15 K
readout.name: solubility (mole fraction)
// return a plain number; no unit text

// solubility (mole fraction) lookup, compound = c1cnc2[nH]ccc2c1 , result: 0.25

====

measurement.context: in acetone, 288.15 K
readout.name: solubility (mole fraction)
// return a plain number; no unit text

// solubility (mole fraction) lookup, compound = c1cnc2[nH]ccc2c1 , result: 0.301

====

measurement.context: in isopropanol, 303.15 K
readout.name: solubility (mole fraction)
// return a plain number; no unit text

// solubility (mole fraction) lookup, molecule = c1cnc2[nH]ccc2c1 , result: 0.279

====

measurement.context: in n-propanol, 283.15 K
readout.name: solubility (mole fraction)
// return a plain number; no unit text

// solubility (mole fraction) lookup, compound = c1cnc2[nH]ccc2c1 , result: 0.202

====

measurement.context: in n-propanol, 298.15 K
readout.name: solubility (mole fraction)
// return a plain number; no unit text

// solubility (mole fraction) lookup, molecule = c1cnc2[nH]ccc2c1 , result: 0.253

====

measurement.context: in acetonitrile, 303.15 K
readout.name: solubility (mole fraction)

// solubility (mole fraction) lookup, compound = c1cnc2[nH]ccc2c1 , result: 0.159

====

measurement.context: in ethanol, 283.15 K
readout.name: solubility (mole fraction)
// return a plain number; no unit text

// solubility (mole fraction) lookup, compound = c1cnc2[nH]ccc2c1 , result: 0.172

====

measurement.context: in methanol, 278.15 K
readout.name: solubility (mole fraction)
// return a plain number; no unit text

// solubility (mole fraction) lookup, compound = c1cnc2[nH]ccc2c1 , result: 0.228

====

measurement.context: in methanol, 298.15 K
readout.name: solubility (mole fraction)
// return a plain number; no unit text

// solubility (mole fraction) lookup, compound = c1cnc2[nH]ccc2c1 , result: 0.277

====

measurement.context: in acetone, 318.15 K
readout.name: solubility (mole fraction)
// return a plain number; no unit text

// solubility (mole fraction) lookup, compound = c1cnc2[nH]ccc2c1 , result: 0.423

====

measurement.context: in n-hexane, 313.15 K
readout.name: solubility (mole fraction)

// solubility (mole fraction) lookup, compound = c1cnc2[nH]ccc2c1 , result: 0.0337

====

measurement.context: in methanol, 318.15 K
readout.name: solubility (mole fraction)

// solubility (mole fraction) lookup, compound = c1cnc2[nH]ccc2c1 , result: 0.351

====

measurement.context: in acetonitrile, 313.15 K
readout.name: solubility (mole fraction)

// solubility (mole fraction) lookup, compound = c1cnc2[nH]ccc2c1 , result: 0.193

====

measurement.context: in acetone, 283.15 K
readout.name: solubility (mole fraction)
// return a plain number; no unit text

// solubility (mole fraction) lookup, compound = c1cnc2[nH]ccc2c1 , result: 0.282

====

measurement.context: in ethyl acetate, 313.15 K
readout.name: solubility (mole fraction)
// return a plain number; no unit text

// solubility (mole fraction) lookup, compound = c1cnc2[nH]ccc2c1 , result: 0.302

====

measurement.context: in isopropanol, 283.15 K
readout.name: solubility (mole fraction)
// return a plain number; no unit text

// solubility (mole fraction) lookup, compound = c1cnc2[nH]ccc2c1 , result: 0.217

====

measurement.context: in THF, 303.15 K
readout.name: solubility (mole fraction)
// return a plain number; no unit text

// solubility (mole fraction) lookup, molecule = c1cnc2[nH]ccc2c1 , result: 0.436

====

measurement.context: in ethyl acetate, 298.15 K
readout.name: solubility (mole fraction)
// return a plain number; no unit text

// solubility (mole fraction) lookup, molecule = c1cnc2[nH]ccc2c1 , result: 0.251

====

measurement.context: in n-propanol, 288.15 K
readout.name: solubility (mole fraction)
// return a plain number; no unit text

// solubility (mole fraction) lookup, molecule = c1cnc2[nH]ccc2c1 , result: 0.215

====

measurement.context: in ethanol, 318.15 K
readout.name: solubility (mole fraction)
// return a plain number; no unit text

// solubility (mole fraction) lookup, compound = c1cnc2[nH]ccc2c1 , result: 0.326

====

measurement.context: in ethanol, 308.15 K
readout.name: solubility (mole fraction)
// return a plain number; no unit text

// solubility (mole fraction) lookup, compound = c1cnc2[nH]ccc2c1 , result: 0.275

====

measurement.context: in n-propanol, 293.15 K
readout.name: solubility (mole fraction)

// solubility (mole fraction) lookup, molecule = c1cnc2[nH]ccc2c1 , result: 0.233

====

measurement.context: in THF, 293.15 K
readout.name: solubility (mole fraction)

// solubility (mole fraction) lookup, compound = c1cnc2[nH]ccc2c1 , result: 0.397

====

measurement.context: in acetonitrile, 323.15 K
readout.name: solubility (mole fraction)
// return a plain number; no unit text

// solubility (mole fraction) lookup, compound = c1cnc2[nH]ccc2c1 , result: 0.242

====

measurement.context: in THF, 283.15 K
readout.name: solubility (mole fraction)
// return a plain number; no unit text

// solubility (mole fraction) lookup, compound = c1cnc2[nH]ccc2c1 , result: 0.361

====

measurement.context: in methanol, 283.15 K
readout.name: solubility (mole fraction)
// return a plain number; no unit text

// solubility (mole fraction) lookup, compound = c1cnc2[nH]ccc2c1 , result: 0.238

====

measurement.context: in n-propanol, 323.15 K
readout.name: solubility (mole fraction)
// return a plain number; no unit text

// solubility (mole fraction) lookup, compound = c1cnc2[nH]ccc2c1 , result: 0.359

====

measurement.context: in THF, 323.15 K
readout.name: solubility (mole fraction)

// solubility (mole fraction) lookup, molecule = c1cnc2[nH]ccc2c1 , result: 0.523

====

measurement.context: in ethyl acetate, 303.15 K
readout.name: solubility (mole fraction)
// return a plain number; no unit text

// solubility (mole fraction) lookup, compound = c1cnc2[nH]ccc2c1 , result: 0.265
